biological target: Shiga toxin 2 (Escherichia coli O157:H7) (UniProt P09385+P09386); assay: E. coli 0.157:H7 Shiga Toxin SOP - stx2 screening assay; assay type: functional; design: scale not given: direction of the effect not stated beside the values; settings: 30 µM
Quick reference for Percent Effect among some molecules
Quick reminder: number only, in %, skip the unit.

See these solved cases before continuing.
{"MOLECULE": "O=C(Cn1ccc2c(Cl)cccc21)N1CCC2(CC1)OCCO2", "Percent Effect / %": 1.14}
{"MOLECULE": "O=C(c1cnco1)N1C[C@@H]2CC[C@H](Oc3cccc(F)c3)[C@@H]2C1", "Percent Effect / %": -73.9}
{"MOLECULE": "CN(C)CC1CN(Cc2csc(C3CCCC3)n2)CCO1 (configuration not stated)", "Percent Effect / %": 14.5}
{"MOLECULE": "Cn1nc(CNC(=O)NCc2ccc(Cl)cc2)c2c1CCOC2", "Percent Effect / %": -9.65}
{"MOLECULE": "CCOCC(=O)N1C[C@@H]2COC[C@H](c3nc(C)no3)[C@@H]2C1", "Percent Effect / %": -13.8}

// Percent Effect lookup, key: O=C1NCCCCC1Sc1nnc(-c2cccnc2)n1C1CC1 (configuration not stated) 7.22

// Percent Effect lookup, key: COCc1ccccc1NC(=O)[C@@H]1CCCN1C(=O)c1ccco1 -2.06

// Percent Effect lookup, key: COc1ccc(CN2CCN(C(C)c3nc(C4CC4)no3)CC2)cc1 (configuration not stated) 0.241
